- system-under-test: T1, BMP-12 (UniProt Q7Z4P5 322-450, limits assumed)
- T1 construct: also called BMP12/GDF7
- T1 sequence (looked up): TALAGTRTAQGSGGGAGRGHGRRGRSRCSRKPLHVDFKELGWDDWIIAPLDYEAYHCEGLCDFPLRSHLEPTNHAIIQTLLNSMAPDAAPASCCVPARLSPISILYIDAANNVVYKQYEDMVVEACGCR
- assay-comment: peptide resin, filter plate; load 4: 25 mM MES pH 6.0
No end group written: not given here.

>  <binder>
Ac-VAPPGYHAFYSHGEK [BMP2 N-trunc_2 peptide 745]

>  <Flow-through K>
0

$$$$
>  <binder>
Ac-LYVDFSDVGWNDWIVAPPGYHAFYSHGEK [BMP2 Full peptide 747]

>  <Flow-through K>
38

$$$$
>  <binder>
Ac-SDVGWNDWIVAPPGYHAFYSHGEK [BMP2 N-trun 1S peptide 751]

>  <Flow-through K>
38

$$$$
>  <binder>
Ac-ELGWDDWIIAPLDYEAYHSEGLK [BMP12 N-trun_1S peptide 749]

>  <Flow-through K>
56

$$$$
